Exercise: state measured pIC50 for each of the molecules provided.
- Experimental target: Human GO (Homo sapiens)
- Construct: purchased Novus Biologicals NBP1-72412
- Sequence (Q9UJM8 whole entry): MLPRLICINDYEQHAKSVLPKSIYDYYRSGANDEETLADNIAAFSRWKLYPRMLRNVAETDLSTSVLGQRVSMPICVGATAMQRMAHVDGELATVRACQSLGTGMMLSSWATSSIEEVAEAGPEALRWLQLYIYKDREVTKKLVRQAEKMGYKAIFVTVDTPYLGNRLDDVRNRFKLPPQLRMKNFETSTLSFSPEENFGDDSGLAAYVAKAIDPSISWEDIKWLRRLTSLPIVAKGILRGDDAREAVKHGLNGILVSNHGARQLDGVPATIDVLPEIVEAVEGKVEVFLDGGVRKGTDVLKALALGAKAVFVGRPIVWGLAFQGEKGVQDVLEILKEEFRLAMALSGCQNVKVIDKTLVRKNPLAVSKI
- Assay name: GO enzymatic assay (coupled fluorescence/HRP assay, glycolate substrate)
- Assay type: biochemical
- Assay setup: Table 1; read-out: Range (range of IC50 values calculated from the enzymatic assays)
pIC50: −log10 of the molar value.

Ask | I would be grateful if you could share the reported pIC50 for O=C(O)c1[nH]nnc1C(=O)N1CCC(c2ccc(Cl)cc2Cl)C1 (centres unmarked) [Compound 149] .
Reply | 5.00 to 6.00

Ask | I would be grateful if you could share the reported pIC50 for O=C(O)c1[nH]nnc1Oc1cc(Cl)ccc1Cl [Compound 100] .
Reply | > 7.00

Ask | I would be grateful if you could share the reported pIC50 for O=C(O)c1[nH]nnc1Nc1ccc2cc(Cl)ccc2n1 [Compound 76] .
Reply | > 7.00

Ask | I would be grateful if you could share the reported pIC50 for CC(=O)OCn1nnc(Oc2ccc3cc(Br)ccc3c2)c1C(=O)O [Compound 101] .
Reply | 6.00 to 7.00

Ask | I would be grateful if you could share the reported pIC50 for O=C(O)c1[nH]nnc1NC1CCN(c2ccc(Cl)cc2)CC1 [Compound 71, 2,2,2-trifluoroacetate] .
Reply | 6.00 to 7.00

Ask | I would be grateful if you could share the reported pIC50 for O=C(O)c1[nH]nnc1SCc1ccc(Cl)c2ccccc12 [Compound 152, 2,2,2-trifluoroacetate] .
Reply | > 7.00

Ask | I would be grateful if you could share the reported pIC50 for CC(C)(C)C(=O)OCn1nnc(Sc2ccc(-c3ccc(OC(F)(F)F)cc3)cc2)c1C(=O)O [Compound 51] .
Reply | 6.00 to 7.00

Ask | I would be grateful if you could share the reported pIC50 for CN(C)CCOC(=O)c1[nH]nnc1Sc1ccc(-c2ccc(OC(F)(F)F)cc2)cc1 [Compound 37] .
Reply | < 5.00

Data credit: patent US11384055B2
